Recorded Mean IC50, pSV neutralization, one value per entry.
molecular target: SARS-CoV-2 S on pseudovirions (Wuhan Hu-1 / IL1/2020, last 18 amino acids removed) (SARS-CoV-2, UniProt P0DTC2 14-1273); test: cell-based or functional assay
Value Type: Mean IC50, pSV neutralization

* COV_1151 (antibody, V domains shown, human IgG1) VH: QVQVQQWGAGLLKPSETLSLTCAVYGGSFNNYYWSWIRQPPGKGLEWIGEINHSGSTNYNPSLMSRVTISVDTSKNQFSLKLTSVTAADTAVYFCARGLPVTTFFSSYYGMDVWGQGTTVTVSS VL: EIVLTQSPGTLSLSPGERATLSCRASQSVSRTYLAWYQQKPGQAPRLLIYGASSRATGIPDRFSGSGSGTDFTLTISRLEPEDFAVYYCQHYGSSPWTFGQGTKVEIRR | ≥ 25 µg/ml
* COV_1045 (antibody, V domains shown) VH: QVHLVQSGAEVQKPGASVKISCKASGDTLSDSYVHWVRQAPGSGLEWMGIINTRDGDTNYTHQFQDRVMMTTDTSTSTVFLELFSLTSEDTAVYYCARAPDQYFDYWGQGSPVTVSA VL: DIVMTQTPLSSPVTLGQPASISCRSSESLVHSNGNTYLSWLQQRPGQPPRLLIYRVSNRFSGVPDRFSGSGAGTEFTLKISRVEAEDVGVYYCMQARHFPRTFGQGTKVEIK | ≥ 25 µg/ml
* COV_2004 (antibody, V domains shown, human IgG1) VH: QVQLVQSGAEVKKPGASVKVSCKASGYTFTGYYMHWVRQAPGQGLEWMGRINPSSGGTNYAQKFQGRVTMTRDTSISTAYMELSSLRSDDTAVYYCATDGDDGENWFDPWGQGTLVIVSS VL: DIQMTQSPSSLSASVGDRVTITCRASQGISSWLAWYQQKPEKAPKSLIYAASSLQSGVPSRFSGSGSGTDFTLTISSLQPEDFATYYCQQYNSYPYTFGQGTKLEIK | 0.04 µg/ml
* COV_3031 (antibody, V domains shown) VH: EVQLVESGGGLVQPGRSLRLSCTTSGFNFGDNSMSWVRQAPGKGLEWVGFISNKAYGGTTEYAASVKGRFTISRDDSTSIAYLQMNSLKTEDTAIYYCIRDSYGHFPDYGFDIWGQGTMVTVSS VL: DVVLTQTPLFLSVTPGQPASISCKSSRSLIHSDGKTYFYWFLQKPGQPPQLLIYEASNRFSGVPDRFSGSGSGTDFTLKISRVEAEDVGVYYCMHSIQLPRTFGQGTKVEIT | ≥ 25 µg/ml
* COV_2054 (antibody, V domains shown, human IgG1) VH: EVQLVESGGGVLQPGRSLRLSCAASGFTFNNYALHWVRQAPGKGLEWVAVISYDGSSKYYADSVRGRLTISRDNSRNTLYLQMNSLRPEDTAIYYCARDGDGLWLGESFYFDDWGQGTLVTVSS VL: DIQMTQSPSTLSASVGDRVIITCRASQSISSWLAWYQQKPGKAPKLLIYEASTLQSGVPSRFSGSGSGTEFTLTISSLQPDDSATYYCQQYNSYPVHFSQGTKLEIK | ≥ 25 µg/ml

Source listed as patent US20240101645A1.
